Target: human COX-2 (Homo sapiens)
Sequence (P35354 18-604): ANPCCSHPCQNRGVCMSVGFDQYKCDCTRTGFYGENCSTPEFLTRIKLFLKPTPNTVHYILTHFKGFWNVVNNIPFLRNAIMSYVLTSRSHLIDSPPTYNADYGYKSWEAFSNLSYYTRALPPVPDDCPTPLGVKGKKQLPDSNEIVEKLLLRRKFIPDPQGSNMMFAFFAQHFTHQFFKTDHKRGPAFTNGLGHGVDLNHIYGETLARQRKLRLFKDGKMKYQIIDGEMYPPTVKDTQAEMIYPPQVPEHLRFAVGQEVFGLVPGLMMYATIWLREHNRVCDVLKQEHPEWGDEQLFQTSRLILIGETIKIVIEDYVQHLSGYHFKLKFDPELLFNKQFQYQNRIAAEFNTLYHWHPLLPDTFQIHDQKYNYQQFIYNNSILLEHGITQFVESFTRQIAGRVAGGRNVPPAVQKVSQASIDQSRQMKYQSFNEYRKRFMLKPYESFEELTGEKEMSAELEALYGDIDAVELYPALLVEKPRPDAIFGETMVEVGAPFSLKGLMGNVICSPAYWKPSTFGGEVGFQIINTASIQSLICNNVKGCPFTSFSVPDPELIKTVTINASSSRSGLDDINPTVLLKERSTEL
Experimental Protocol: Inhibition of PGE2 release in COS cells stably transfected with human COX-2
Test Settings: COS cells stably transfected with cDNA for human COX-2; PGE2 release by enzyme immunoassay; 1 hour preincubation; 30 μM arachidonic acid, 15 minutes
Endpoint Name: IC50 (nM)

Some solved entries appear below for comparison.
• CS(=O)(=O)c1ccc(-c2cc(C(F)(F)F)nc(NCc3ccccn3)n2)cc1 = 2.5
• COc1ccc(CNc2nc(-c3ccc(S(C)(=O)=O)cc3)cc(C(F)(F)F)n2)cc1 = 34
• CS(=O)(=O)c1ccc(-c2cc(C(F)(F)F)nc(NCc3ccncc3)n2)cc1 = 1.3

[a] CS(=O)(=O)c1ccc(-c2cc(C(F)(F)F)nc(NCc3cccnc3)n2)cc1
[b] CS(=O)(=O)c1ccc(-c2cc(C(F)(F)F)nc(NCc3ccccc3)n2)cc1
Query: Would you mind telling me which has the lower recorded IC50 between a and b ? State the label of the item chosen.
Response: b

Hello, the source for this data is patent US6780870B2, in case you need it.
